- Assayed Target: PSMA Fab (anti-PSMA Fab; 006 PSMA Fab)
- Test Name: phage binding ELISA on captured PSMA Fab; wells first incubated with PSMA antigen as competitor; anti-M13 HRP detection
Listing of entries alongside the reported Phage binding ELISA signal, Anti-PSMA Fab with PSMA antigen.
// keep it numeric: no unit symbol after the value

EMKWCKPEWMCPWM [Phage-2730 (Peptide-180 library clone)]; 0.0688

# get_value(readout='Phage binding ELISA signal, Anti-PSMA Fab with PSMA antigen', item= VSNWCKPAWMCGTT [Phage-2731 (Peptide-180 library clone)] )
0.079

// next record DIKWCTPSWMCPAK [Phage-2733 (Peptide-180 library clone)]
0.0862

// next record FENWCTPYWMCSGM [Phage-2739 (Peptide-180 library clone)]
0.0884
